Each record here notes measured melting point.

Some molecules with recorded melting point:
{"MOLECULE": "Cc1nc(=O)c2ccc(C(=O)NS(=O)(=O)c3ccccc3)cc2n1Cc1ccc(Cl)cc1Cl [Example 47-2]", "ENDPOINT_LABEL": "melting point", "MEASUREMENT": "214 to 216 °C"}
{"MOLECULE": "CCCCS(=O)(=O)NC(=O)c1ccc2c(c1)CN(Cc1ccc(Cl)cc1Cl)C(C)=N2.Cl", "ENDPOINT_LABEL": "melting point", "MEASUREMENT": "258 °C (dec.)"}
{"MOLECULE": "CCCCS(=O)(=O)NC(=O)c1ccc2c(=O)n(Cc3ccc(Cl)cc3Cl)c(=O)n(C)c2c1 [Example 43]", "ENDPOINT_LABEL": "melting point", "MEASUREMENT": "212 to 214 °C"}

molecule Cc1nc2ccc(C(=O)NS(=O)(=O)c3ccccc3)nc2n1Cc1ccc(CO)cc1Cl [Example 115] , melting point observed: 198 to 199 °C

molecule CCCCCS(=O)(=O)NC(=O)c1cc(C)c2nc(CC)n(Cc3ccc(Cl)cc3Cl)c2n1 [Example 15] , melting point observed: 178 to 180 °C

* * *

Each record here notes measured melting point.

{"COMPOUND": "Cc1nc2ccc(C(=O)NS(=O)(=O)/C=C/c3ccccc3)nc2n1Cc1ccc(-c2ccccc2)cc1Cl [Example 67-2]", "MEASUREMENT": "216 to 218 °C"}

compound CCCCS(=O)(=O)NC(=O)c1ccc2c(=O)n(CC)c(=O)n(Cc3ccc(Cl)cc3Cl)c2c1 [Example 42] , melting point observed: 212 to 214 °C

compound CCCCCS(=O)(=O)NC(=O)c1ccc2nc(C)n(Cc3ccc(C(F)(F)F)cc3Cl)c2n1 [Example 102-2] , melting point observed: 154 to 155 °C

compound CSc1ccc(Cn2c(C)nc3ccc(C(=O)NS(=O)(=O)c4ccc(Br)s4)nc32)c(Cl)c1 [Example 150] , melting point observed: 169 to 170 °C

compound Cc1nc2ccc(C(=O)NS(=O)(=O)c3ccccc3)nc2n1Cc1ccc(C#N)cc1Cl [Example 108] , melting point observed: 242 to 243 °C

compound CCCCS(=O)(=O)NC(=O)c1ccc2nc(C)n(Cc3ccc(Cl)cc3Br)c2n1 [Example 13-3] , melting point observed: 145 to 146 °C

compound Cc1cc(C(=O)NS(=O)(=O)/C=C/c2ccccc2)nc2c1nc(C)n2Cc1ccc(-c2ccc(Cl)s2)cc1Cl [Example 196] , melting point observed: 224 to 225 °C

compound CCCCCS(=O)(=O)NC(=O)c1ccc2c(c1)N(Cc1ccc(Cl)cc1Cl)C(C)=NC2.Cl , melting point observed: 184 to 186 °C

compound CCCCCS(=O)(=O)NC(=O)c1cc(C)c2nc(C)n(Cc3ccc(-c4cccs4)cc3Cl)c2n1 [Example 188] , melting point observed: 220 to 224 °C

compound Cc1cc(C(=O)NS(=O)(=O)/C=C/c2ccccc2)nc2c1nc(C)n2Cc1ccc(Br)cc1Cl [Example 106-2] , melting point observed: 225 to 227 °C

* * *

Each record here notes measured melting point.

Some molecules with recorded melting point:
{"ITEM_SMILES": "CCCCCS(=O)(=O)NC(=O)c1cccc2c(CC)c(Cc3ccc(Cl)cc3Cl)sc12", "melting point": "176 to 178 °C"}
{"ITEM_SMILES": "CCCCS(=O)(=O)NC(=O)c1ccc2c(c1)n(Cc1ccc(Cl)cc1Cl)c(=O)n2C", "melting point": "358 to 360 °C"}
{"ITEM_SMILES": "CCCCCS(=O)(=O)NC(=O)c1cc(C)c2nc(CC)n(Cc3ccc(-c4ccccc4)cc3)c2n1", "melting point": "210 to 211 °C"}

Kindly consider the entry below.
molecule Cc1nc2ccc(C(=O)NS(=O)(=O)c3ccccc3)nc2n1Cc1ccc(Cl)cc1Cl , melting point observed: 193 to 194 °C

Data provenance is patent US6911469B2.
